- targetDesc: Epidermal growth factor receptor (Homo sapiens)
- Sequence (P00533 whole entry): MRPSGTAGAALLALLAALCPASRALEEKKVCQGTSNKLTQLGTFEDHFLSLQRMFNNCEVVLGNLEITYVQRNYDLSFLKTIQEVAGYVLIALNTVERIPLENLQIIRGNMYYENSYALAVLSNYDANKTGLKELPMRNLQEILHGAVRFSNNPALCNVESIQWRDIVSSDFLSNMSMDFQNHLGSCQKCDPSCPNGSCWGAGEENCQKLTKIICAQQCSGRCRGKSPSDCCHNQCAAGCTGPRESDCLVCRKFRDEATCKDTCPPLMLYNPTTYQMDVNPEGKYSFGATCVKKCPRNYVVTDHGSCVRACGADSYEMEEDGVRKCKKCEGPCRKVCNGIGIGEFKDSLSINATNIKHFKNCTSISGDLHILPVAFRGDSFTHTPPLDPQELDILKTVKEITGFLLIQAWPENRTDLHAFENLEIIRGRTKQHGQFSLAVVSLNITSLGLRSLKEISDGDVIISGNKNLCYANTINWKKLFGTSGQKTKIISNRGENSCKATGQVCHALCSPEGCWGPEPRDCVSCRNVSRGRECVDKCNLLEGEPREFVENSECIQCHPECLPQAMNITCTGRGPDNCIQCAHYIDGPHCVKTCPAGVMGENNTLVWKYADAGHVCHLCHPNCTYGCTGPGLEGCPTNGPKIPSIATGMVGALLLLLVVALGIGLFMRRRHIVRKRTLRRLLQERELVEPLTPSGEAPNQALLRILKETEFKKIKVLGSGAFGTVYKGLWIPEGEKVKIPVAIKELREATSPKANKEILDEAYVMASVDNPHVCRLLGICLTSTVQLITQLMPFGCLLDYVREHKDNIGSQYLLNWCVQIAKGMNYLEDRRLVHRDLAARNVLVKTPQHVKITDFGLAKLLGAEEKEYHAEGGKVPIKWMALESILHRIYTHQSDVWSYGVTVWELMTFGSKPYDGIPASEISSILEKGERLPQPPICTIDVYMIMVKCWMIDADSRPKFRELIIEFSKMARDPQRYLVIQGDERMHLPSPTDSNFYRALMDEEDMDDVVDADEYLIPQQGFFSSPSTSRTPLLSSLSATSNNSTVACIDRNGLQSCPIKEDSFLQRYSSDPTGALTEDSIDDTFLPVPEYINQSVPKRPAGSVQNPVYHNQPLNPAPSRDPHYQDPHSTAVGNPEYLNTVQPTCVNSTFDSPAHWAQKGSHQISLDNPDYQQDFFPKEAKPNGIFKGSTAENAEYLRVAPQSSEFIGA
endpoint: IC50 (nM)

Solved cases below.
# entrySmiles, unitLabel, experimentalValue
measured = [
    ("Cc1ccc(Oc2ccc(Nc3ncnc4ccc(-c5cn(CCCCCC(=O)NO)nn5)cc34)cc2C)cn1", "nM", 6.4),
    ("O=C(CCCCCCn1cc(-c2ccc3ncnc(Nc4ccc(OCc5nccs5)c(Cl)c4)c3c2)nn1)NO", "nM", 3.6),
    ("Cc1ccc(Oc2ccc(Nc3ncnc4ccc(-c5cn(CCCCCCC(=O)NO)nn5)cc34)cc2C)cn1", "nM", 10),
    ("COc1cc(Nc2ncnc3ccc(-c4cn(CCCCCC(=O)NO)nn4)cc23)ccc1Oc1ccccc1", "nM", 5.8),
    ("O=C(CCCCCn1cc(-c2ccc3ncnc(Nc4ccc(OCc5nccs5)c(Cl)c4)c3c2)nn1)NO", "nM", 6.9),
]

a: O=C(CCCCCn1cc(-c2ccc3ncnc(Nc4ccc(OCc5cccc(F)c5)c(Cl)c4)c3c2)nn1)NO
b: O=C(CCCCCCn1cc(-c2ccc3ncnc(Nc4cccc(Cl)c4F)c3c2)nn1)NO
Enquiry: Sort a and b by IC50 descending and give the first. Selection: enter the item's label.
Return: a
(a: 1.9 nM, b: 0.12 nM)

I: COc1cc(Nc2ncnc3ccc(-c4cn(CCCCCCC(=O)NO)nn4)cc23)ccc1Oc1ccccc1
II: O=C(CCCCCn1cc(-c2ccc3ncnc(Nc4ccc(F)c(Cl)c4)c3c2)nn1)NO
Enquiry: Sort I and II by IC50 descending and give the first. Selection: enter the item's label.
Return: I
(I: 11.6 nM, II: 0.65 nM)
